Just for reference, ChEMBL document CHEMBL1152321 is where these values come from.

Provide the reported Ratio of each item.
system: MCF7; experiment: Resistance factor, ratio of IC50 for P-glycoprotein deficient wild type human MCF7 cells to IC50 for multidrug-resistant human NCI/ADR cells; assay type: functional
# answer = number (no unit)

Request: What measured Ratio is associated with "COc1cccc(C(=O)O[C@H]2[C@@H]3[C@]4(OC(C)=O)CO[C@@H]4C[C@H](O)[C@@]3(C)C(=O)[C@H](OC(=O)c3ccccc3OC)C3=C(C)[C@@H](OC(=O)[C@H](O)[C@H](C=C(C)C)NC(=O)OC(C)(C)C)C[C@]2(O)C3(C)C)c1" on MCF7?
Result: 3

Request: Can you check "CCC(=O)O[C@H]1C(=O)[C@@]2(C)[C@H]([C@H](OC(=O)c3ccccc3)[C@]3(O)C[C@H](OC(=O)[C@H](O)[C@H](C=C(C)C)NC(=O)C4CCCCC4)C(C)=C1C3(C)C)[C@]1(OC(C)=O)CO[C@@H]1C[C@@H]2O" next?
Result: 18

Request: Can you check "CCC(=O)O[C@H]1C(=O)[C@@]2(C)[C@H]([C@H](OC(=O)c3cccc(OC)c3)[C@]3(O)C[C@H](OC(=O)[C@H](O)[C@H](CC(C)C)NC(=O)OC4CCCC4)C(C)=C1C3(C)C)[C@]1(OC(C)=O)CO[C@@H]1C[C@@H]2O" next?
Result: 6.9

Request: Can you check "CCC(=O)O[C@H]1C(=O)[C@@]2(C)[C@H]([C@H](OC(=O)c3cccc(OC)c3)[C@]3(O)C[C@H](OC(=O)[C@H](O)[C@H](C=C(C)C)NC(=O)C4CC4)C(C)=C1C3(C)C)[C@]1(OC(C)=O)CO[C@@H]1C[C@@H]2O" next?
Result: 15.6

Request: Can you check "CCC(=O)O[C@H]1C(=O)[C@@]2(C)[C@H]([C@H](OC(=O)c3ccccc3)[C@]3(O)C[C@H](OC(=O)[C@H](O)[C@H](C=C(C)C)NC(=O)C4=CCCC4)C(C)=C1C3(C)C)[C@]1(OC(C)=O)CO[C@@H]1C[C@@H]2O" next?
Result: 15

Request: Can you check "CCC(=O)O[C@H]1C(=O)[C@@]2(C)[C@H]([C@H](OC(=O)c3ccccc3)[C@]3(O)C[C@H](OC(=O)[C@H](O)[C@H](C=C(C)C)NC(=O)C4CCC4)C(C)=C1C3(C)C)[C@]1(OC(C)=O)CO[C@@H]1C[C@@H]2O" next?
Result: 34

Request: Can you check "CCC(=O)O[C@H]1C(=O)[C@@]2(C)[C@H]([C@H](OC(=O)c3ccccc3)[C@]3(O)C[C@H](OC(=O)[C@H](O)[C@H](C=C(C)C)NC(=O)OC4CCCCC4)C(C)=C1C3(C)C)[C@]1(OC(C)=O)CO[C@@H]1C[C@@H]2O" next?
Result: 6.4

Request: Can you check "C=CCC[C@H](NC(=O)OC(C)(C)C)[C@@H](O)C(=O)O[C@H]1C[C@@]2(O)[C@@H](OC(=O)c3cccc(OC)c3)[C@@H]3[C@]4(OC(C)=O)CO[C@@H]4C[C@H](O)[C@@]3(C)C(=O)[C@H](OC(=O)CC)C(=C1C)C2(C)C" next?
Result: 3.9

Request: Can you check "CCC(=O)O[C@H]1C(=O)[C@@]2(C)[C@H]([C@H](OC(=O)c3ccccc3)[C@]3(O)C[C@H](OC(=O)[C@H](O)[C@H](CC(C)C)NC(=O)C4CCCC4)C(C)=C1C3(C)C)[C@]1(OC(C)=O)CO[C@@H]1C[C@@H]2O" next?
Result: 12

Request: Can you check "CCC(=O)O[C@H]1C(=O)[C@@]2(C)[C@H]([C@H](OC(=O)c3ccccc3)[C@]3(O)C[C@H](OC(=O)[C@H](O)[C@H](C=C(C)C)NC(=O)C4CCCC4)C(C)=C1C3(C)C)[C@]1(OC(C)=O)CO[C@@H]1C[C@@H]2O" next?
Result: 20

Request: Can you check "CCC(=O)O[C@H]1C(=O)[C@@]2(C)[C@H]([C@H](OC(=O)c3cccc(OC)c3)[C@]3(O)C[C@H](OC(=O)[C@H](O)[C@H](C=C(C)C)NC(=O)C4CCC4)C(C)=C1C3(C)C)[C@]1(OC(C)=O)CO[C@@H]1C[C@@H]2O" next?
Result: 11

Request: Can you check "CCC(=O)O[C@H]1C(=O)[C@@]2(C)[C@H]([C@H](OC(=O)c3ccccc3)[C@]3(O)C[C@H](OC(=O)[C@H](O)[C@H](CC(C)C)NC(=O)OC4CCCCC4)C(C)=C1C3(C)C)[C@]1(OC(C)=O)CO[C@@H]1C[C@@H]2O" next?
Result: 10
